Assay Overview: Molar enthalpy of transition or fusion
Condition Notes: Crystal 2; DSC
Measurement Label: Molar enthalpy of transition or fusion (kcal/mol)

CCCCCCCCC(=O)[O-].[K+] [potassium nonanoate] ... 3.47
CCCCC(=O)[O-].[K+] [potassium pentanoate] ... 4.16
CCCCCCCCCCC(=O)[O-].[K+] [potassium undecanoate] ... 2.9

A = O=C[O-].[K+] [potassium formate]
B = CCCCCCCC(=O)[O-].[K+] [potassium octanoate]
C = CCC(=O)[O-].[K+] [potassium propanoate]
Ask | Sort the compounds on Molar enthalpy of transition or fusion; start with the lowest figure. Would you mind listing the labels in the order requested?
Reply | A, C, B

====

Condition Notes: Crystal 4; DTA
Measurement Label: Triple point temperature (K)

CCCCCCCCCCC(=O)[O-].[K+] [potassium undecanoate] ... 354.6
CCCCCCCCCC(=O)[O-].[K+] [potassium decanoate] ... 383
CCCCCCCCCCCC(=O)[O-].[K+] [dodecanoic acid, potassium salt] ... 405.5
CCCC(=O)[O-].[K+] [potassium butanoate] ... 454.7

====

Condition Notes: Crystal 1; DTA
Measurement Label: Normal melting temperature (°C)

CCCCCCCCCCCC(=O)[O-].[K+] [dodecanoic acid, potassium salt] ... 399

P = CCCCCC(=O)[O-].[K+] [potassium hexanoate]
Q = CC(=O)[O-].[K+] [potassium ethanoate]
Ask | Between the entries labelled P and Q , which has a larger Normal melting temperature value on record? Reply with the label of the item you choose.
Reply | P

====

Condition Notes: Crystal 1; DTA
Measurement Label: Normal melting temperature (°C)

CCCCCCCCCC(=O)[O-].[K+] [potassium decanoate] ... 418.4
CCCCCCC(=O)[O-].[K+] [potassium heptanoate] ... 449
CCCCCCCC(=O)[O-].[K+] [potassium octanoate] ... 435.5
CCC(=O)[O-].[K+] [potassium propanoate] ... 363.8

A = O=C[O-].[K+] [potassium formate]
B = CCCCCCCCC(=O)[O-].[K+] [potassium nonanoate]
Ask | Of A versus B , which is the one with smaller reported Normal melting temperature? Reply with the label of the item you choose.
Reply | A
(A: 169.1 °C, B: 431.4 °C)

====

Condition Notes: Crystal 2; DTA
Measurement Label: Triple point temperature (K)

CCCCCCCCCCC(=O)[O-].[K+] [potassium undecanoate] ... 542.5
O=C[O-].[K+] [potassium formate] ... 415.8
CCCCCCCC(=O)[O-].[K+] [potassium octanoate] ... 562.8
CCCCCC(=O)[O-].[K+] [potassium hexanoate] ... 582.4
CCC(=O)[O-].[K+] [potassium propanoate] ... 352.1
CC(=O)[O-].[K+] [potassium ethanoate] ... 425

====

Assay Overview: Molar enthalpy of transition or fusion
Condition Notes: Crystal 1; DSC
Measurement Label: Molar enthalpy of transition or fusion (kcal/mol)

CCCCCCCCCC(=O)[O-].[K+] [potassium decanoate] ... 0.402

A = CCC(=O)[O-].[K+] [potassium propanoate]
B = CCCCC(=O)[O-].[K+] [potassium pentanoate]
C = CCCCCCCC(=O)[O-].[K+] [potassium octanoate]
Ask | Rank order required: Molar enthalpy of transition or fusion, descending. Would you mind listing the labels in the order requested?
Reply | A, B, C

A = CCCCCCCCC(=O)[O-].[K+] [potassium nonanoate]
B = CCCCCCC(=O)[O-].[K+] [potassium heptanoate]
Ask | Of A versus B , which is the one with smaller reported Molar enthalpy of transition or fusion? Reply with the label of the item you choose.
Reply | A

====

Assay Overview: Molar enthalpy of transition or fusion
Condition Notes: Crystal 2; DSC
Measurement Label: Molar enthalpy of transition or fusion (kcal/mol)

Examples with answers:
CCCCCCCCCCCC(=O)[O-].[K+] [dodecanoic acid, potassium salt] ... 2.79
CCCCCC(=O)[O-].[K+] [potassium hexanoate] ... 3.98
CCCC(=O)[O-].[K+] [potassium butanoate] ... 2.56

A = CCCCCCC(=O)[O-].[K+] [potassium heptanoate]
B = CC(=O)[O-].[K+] [potassium ethanoate]
Ask | Of A versus B , which is the one with smaller reported Molar enthalpy of transition or fusion? Reply with the label of the item you choose.
Reply | B
(B: 0.0704 kcal/mol, A: 4.22 kcal/mol)

====

Assay Overview: Molar enthalpy of transition or fusion
Condition Notes: Crystal 4; DSC
Measurement Label: Molar enthalpy of transition or fusion (kcal/mol)

CCCCCCCCCCC(=O)[O-].[K+] [potassium undecanoate] ... 2.95

P = CCCCCCCCCCCC(=O)[O-].[K+] [dodecanoic acid, potassium salt]
Q = CCCCCCCCCC(=O)[O-].[K+] [potassium decanoate]
R = CCCC(=O)[O-].[K+] [potassium butanoate]
Ask | Sort the compounds on Molar enthalpy of transition or fusion; start with the lowest figure. Would you mind listing the labels in the order requested?
Reply | R, Q, P
(R: 0.166 kcal/mol, Q: 0.855 kcal/mol, P: 2.28 kcal/mol)

====

Assay Overview: Molar enthalpy of transition or fusion
Condition Notes: Crystal 3; DSC
Measurement Label: Molar enthalpy of transition or fusion (kcal/mol)

Examples with answers:
CCCCCCCCCCC(=O)[O-].[K+] [potassium undecanoate] ... 2.15
CC(=O)[O-].[K+] [potassium ethanoate] ... 0.0164
CCCC(=O)[O-].[K+] [potassium butanoate] ... 0.814
CCCCCCCCC(=O)[O-].[K+] [potassium nonanoate] ... 3.75
CCCCCCCC(=O)[O-].[K+] [potassium octanoate] ... 2.4

a = CCCCCCCCCCCC(=O)[O-].[K+] [dodecanoic acid, potassium salt]
b = CCCCCCC(=O)[O-].[K+] [potassium heptanoate]
c = CCCCC(=O)[O-].[K+] [potassium pentanoate]
Ask | Rank order required: Molar enthalpy of transition or fusion, descending. Would you mind listing the labels in the order requested?
Reply | b, a, c

====

Condition Notes: Crystal 3; DTA
Measurement Label: Triple point temperature (K)

CCCCCCC(=O)[O-].[K+] [potassium heptanoate] ... 333.7
CC(=O)[O-].[K+] [potassium ethanoate] ... 331.8
CCCCCCCCCC(=O)[O-].[K+] [potassium decanoate] ... 528
CCCCCCCCCCCC(=O)[O-].[K+] [dodecanoic acid, potassium salt] ... 489
CCCCC(=O)[O-].[K+] [potassium pentanoate] ... 397.6
CCCCCCCCCCC(=O)[O-].[K+] [potassium undecanoate] ... 410
CCCCCCCC(=O)[O-].[K+] [potassium octanoate] ... 327.8

P = CCCCCCCCC(=O)[O-].[K+] [potassium nonanoate]
Q = CCCC(=O)[O-].[K+] [potassium butanoate]
Ask | Between the entries labelled P and Q , which has a larger Triple point temperature value on record? Reply with the label of the item you choose.
Reply | Q

====

Condition Notes: Crystal 2; DTA
Measurement Label: Triple point temperature (K)

CCCCCCCCCC(=O)[O-].[K+] [potassium decanoate] ... 546.5
CCCCC(=O)[O-].[K+] [potassium pentanoate] ... 585.4
CCCCCCCCCCCC(=O)[O-].[K+] [dodecanoic acid, potassium salt] ... 543.4
CCCCCCCCC(=O)[O-].[K+] [potassium nonanoate] ... 544.9
CCCC(=O)[O-].[K+] [potassium butanoate] ... 623.1
CCCCCCC(=O)[O-].[K+] [potassium heptanoate] ... 571

====

Assay Overview: Molar enthalpy of transition or fusion
Condition Notes: Crystal 1; DSC
Measurement Label: Molar enthalpy of transition or fusion (kcal/mol)

CCCCCCCCCCCC(=O)[O-].[K+] [dodecanoic acid, potassium salt] ... 0.342
CCCC(=O)[O-].[K+] [potassium butanoate] ... 1.18
O=C[O-].[K+] [potassium formate] ... 2.79

I = CC(=O)[O-].[K+] [potassium ethanoate]
II = CCCCCC(=O)[O-].[K+] [potassium hexanoate]
Ask | Of I versus II , which is the one with smaller reported Molar enthalpy of transition or fusion? Reply with the label of the item you choose.
Reply | II

====

Condition Notes: Crystal 1; DTA
Measurement Label: Normal melting temperature (°C)

CCCC(=O)[O-].[K+] [potassium butanoate] ... 394
CCCCCCCCCCC(=O)[O-].[K+] [potassium undecanoate] ... 407.6
CCCCC(=O)[O-].[K+] [potassium pentanoate] ... 443.6
